The origin of these recorded values is PubChem BioAssay AID624417.

biological target: Glucagon-like peptide 1 receptor (Homo sapiens) (UniProt P43220); experiment: qHTS of GLP-1 Receptor Inverse Agonists (Inhibition Mode); settings: HEK293 GLP-1R CRE-luciferase, luminescence, 24 h, GLP-1R form is constitutively active; series mostly up to 38.3 µM; also: nearly all actives have a fitted effect of over 55% in size; also: potency is read from the fitted curve at half-maximal effect
Sequence (P43220 whole entry, looked up): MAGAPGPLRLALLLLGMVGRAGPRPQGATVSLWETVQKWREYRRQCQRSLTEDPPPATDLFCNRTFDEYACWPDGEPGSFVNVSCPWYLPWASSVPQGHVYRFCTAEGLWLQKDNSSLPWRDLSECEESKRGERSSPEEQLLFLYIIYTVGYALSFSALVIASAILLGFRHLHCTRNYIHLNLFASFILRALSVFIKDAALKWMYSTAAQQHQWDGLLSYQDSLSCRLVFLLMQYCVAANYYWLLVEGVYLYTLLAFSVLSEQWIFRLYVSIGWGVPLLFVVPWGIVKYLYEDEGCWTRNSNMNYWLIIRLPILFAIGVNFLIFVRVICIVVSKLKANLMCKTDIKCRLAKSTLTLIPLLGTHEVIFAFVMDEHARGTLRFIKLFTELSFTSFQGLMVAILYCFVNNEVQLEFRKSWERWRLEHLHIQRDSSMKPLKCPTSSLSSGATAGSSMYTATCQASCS
The campaign covered roughly 410,000 compounds. About 6,400 (1.6%) were called active. Inconclusive results (about 20%) are left out. The sample holds actives, similar compounds and a random draw of the others, so the mix is not that of the screen.
RESULT_TYPE: Potency

{"COMPOUND": "CC1(C)CC(=O)C=C(c2ccc(COC(=O)c3cc(F)cc(F)c3)cc2)C1=O", "READOUT_VALUE": "inactive"}
{"COMPOUND": "CC1(C(=O)NS(=O)(=O)c2ccccc2Cl)CCN1C(=O)c1cccc(F)c1 (stereo not given)", "READOUT_VALUE": "inactive"}
{"COMPOUND": "CC1(C(=O)NS(=O)(=O)c2cccc(OC(F)F)c2)CCN1C(=O)C1CC1 (stereo not given)", "READOUT_VALUE": "inactive"}
{"COMPOUND": "COc1ccc(C2OC(CCc3ccccc3)Cc3[nH]c(=S)[nH]c(=O)c32)cc1 (stereo not given)", "READOUT_VALUE": "10 µM (active)"}
{"COMPOUND": "COc1ccc(Cl)cc1NC(=O)CN(C)C(=O)c1cn(-c2ccccc2)nc1-c1cccs1", "READOUT_VALUE": "inactive"}
{"COMPOUND": "O=C(COc1ccc(Br)cc1)OCC(=O)c1ccc[nH]1", "READOUT_VALUE": "inactive"}
{"COMPOUND": "COc1ccc(N2C(=O)C(Cc3ccccc3)NC2=S)cc1 (stereo not given)", "READOUT_VALUE": "inactive"}
{"COMPOUND": "COc1ccc(NC(=O)[C@H](NC(=O)[C@@H]2Cc3ccccc3CN2)c2ccccc2)cc1", "READOUT_VALUE": "inactive"}
{"COMPOUND": "O=C1NC[C@H](CCCCN2C[C@H](Cc3ccc(O)cc3)N(CCc3ccccc3)C(=O)C2=O)N(CCc2ccccc2)C1=O", "READOUT_VALUE": "inactive"}
{"COMPOUND": "Cc1cc(C)cc(C(=O)NCCN2CCOCC2)c1", "READOUT_VALUE": "inactive"}
{"COMPOUND": "CN(C)CCN1CCN(c2cc(-c3cccc(Cl)c3)nc3ccnn23)CC1", "READOUT_VALUE": "inactive"}
{"COMPOUND": "CC(=O)NN=C(C)c1ccc(NC(=O)C2CC2)cc1", "READOUT_VALUE": "inactive"}
{"COMPOUND": "COc1ccc(-c2cn3ccc(C)cc3n2)cc1", "READOUT_VALUE": "6.31 µM (active)"}
{"COMPOUND": "COc1cccc(NC(=O)[C@H](Cc2c[nH]c3ccccc23)NC(=O)[C@@H]2Cc3ccccc3CN2)c1", "READOUT_VALUE": "3.98 µM (active)"}
{"COMPOUND": "CCCCc1nc2ccc(F)cc2cc1C", "READOUT_VALUE": "inactive"}
{"COMPOUND": "c1ccc(-c2nnc(N3CCOCC3)c3ccccc23)cc1", "READOUT_VALUE": "inactive"}
{"COMPOUND": "Cc1ccc(C2(c3ccc(C)cc3)NC(=O)N(Cc3c(C)noc3C)C2=O)cc1", "READOUT_VALUE": "10 µM (active)"}
{"COMPOUND": "CC1Cc2[nH][nH]c(=O)c2C(C2CC2)O1 (stereo not given)", "READOUT_VALUE": "inactive"}
{"COMPOUND": "CCOC(=O)C1(C)CCCN(C(=O)c2cccc(Cl)c2)C1 (stereo not given)", "READOUT_VALUE": "inactive"}
{"COMPOUND": "Cc1ccccc1OS(=O)(=O)c1cccc([N+](=O)[O-])c1", "READOUT_VALUE": "inactive"}
{"COMPOUND": "COCCN(C(=S)Nc1ccccc1OC)C1CCN(C(C)C)CC1", "READOUT_VALUE": "inactive"}
{"COMPOUND": "O=C(NCc1ccc(F)cc1F)[C@@H]1CCCN1C(=O)[C@@H]1CCCN1C(=O)c1cccc(Cl)c1", "READOUT_VALUE": "inactive"}
{"COMPOUND": "O=C1NC[C@H](CCCCN2C[C@H](Cc3ccc(O)cc3)N(CC3CCCCC3)C(=O)C2=O)N(CCc2ccccc2)C1=O", "READOUT_VALUE": "inactive"}
{"COMPOUND": "CC1CC(C)(C)n2c(O)c(N=NC(N)=S)c3cccc1c32 (stereo not given)", "READOUT_VALUE": "5.01 µM (active)"}
{"COMPOUND": "CCN(CC)S(=O)(=O)c1ccc(-c2cn3ccc(C)cc3n2)cc1", "READOUT_VALUE": "inactive"}
{"COMPOUND": "Cc1ccc(CCNC(=O)CN2C(=O)CSc3ccc(S(=O)(=O)N4CCOCC4)cc32)cc1", "READOUT_VALUE": "inactive"}
{"COMPOUND": "O=C(NCc1ccccc1)C1c2ccccc2OCC(=O)N1C1CC1 (stereo not given)", "READOUT_VALUE": "inactive"}
{"COMPOUND": "CCOc1nc(NCCN2CCOCC2)nc(Nc2ccc(C)cc2)n1", "READOUT_VALUE": "inactive"}
{"COMPOUND": "COc1ccc(Cl)cc1NC(=O)CN(C)C(=O)c1cc2ccccc2cc1OC", "READOUT_VALUE": "10 µM (active)"}
{"COMPOUND": "Cc1ccc(NC(=O)Cn2sc3ccccc3c2=O)cc1", "READOUT_VALUE": "inactive"}
{"COMPOUND": "COC(=O)C[C@@H]1C=C[C@@H](NC(=O)c2cccnc2)[C@@H](CO)O1", "READOUT_VALUE": "inactive"}
{"COMPOUND": "COc1ccc(Sc2ccc(NC(=O)c3cccc(Cl)c3)cc2C#N)cc1", "READOUT_VALUE": "inactive"}
{"COMPOUND": "CC(=O)NC(c1ccccc1)c1nc(-c2ccccc2C)cs1 (stereo not given)", "READOUT_VALUE": "inactive"}
{"COMPOUND": "C[N+](C)(C)CCNC(=O)c1c[nH]c2ccccc12", "READOUT_VALUE": "inactive"}
{"COMPOUND": "CC(C)CCOc1ccc(C(=O)Nc2cc(S(=O)(=O)N3CCOCC3)ccc2N2CCOCC2)cc1", "READOUT_VALUE": "inactive"}

----------
molecular target: Glucagon-like peptide 1 receptor (Homo sapiens) (UniProt P43220); test: qHTS of GLP-1 Receptor Inverse Agonists (Inhibition Mode); conditions: HEK293 GLP-1R CRE-luciferase, luminescence, 24 h, GLP-1R form is constitutively active; series mostly up to 38.3 µM; also: nearly all actives have a fitted effect of over 55% in size
The whole screen tested about 410,000 compounds, of which about 6,400 (1.6%) were called active. Another 20% or so got no clear call; they are omitted. The call rests on the fitted dose curve; in most records, active means well fitted inhibition curve with a large enough effect; inconclusive means small, poorly fitted or top-dose-only effect; inactive means no such curve, though single readings can be large or run the other way. The entries come from a sample that favours actives as a whole.
Outcome codes: YES for active, NO for inactive

{"MOLECULE": "c1ccc(-c2csc(N3CCc4ccccc4C3)n2)cc1", "CLASSIFICATION": "NO"}
{"MOLECULE": "Cc1cc(Cl)ccc1OCCCC(=O)NCc1ccncc1", "CLASSIFICATION": "NO"}
{"MOLECULE": "O=C(C1CCN(S(=O)(=O)c2cccs2)CC1)N1CCCCCC1", "CLASSIFICATION": "NO"}
{"MOLECULE": "CC(=O)N1CCN(Cc2cc(=O)oc3cc(C)ccc23)CC1", "CLASSIFICATION": "NO"}
{"MOLECULE": "CCOC(=O)N1CCN(C(=O)c2nn(-c3ccc(C)cc3)c(=O)c3c2c2ccccc2n3C)CC1", "CLASSIFICATION": "NO"}
{"MOLECULE": "O=C(C1CCN(S(=O)(=O)c2ccc(Br)s2)CC1)N1CCN(C2CCCCC2)CC1", "CLASSIFICATION": "YES"}
{"MOLECULE": "CC(NC(=O)CN1CCN(Cc2ccc(Cl)cc2)C1=O)c1ccc2c(c1)OCCO2 (stereo not drawn)", "CLASSIFICATION": "NO"}
{"MOLECULE": "C=CCOC(=O)C1=C(C)NC(C)=C(C(=O)OCC=C)C1c1cccs1", "CLASSIFICATION": "YES"}
{"MOLECULE": "CC1(C(=O)NS(=O)(=O)c2cccc(F)c2)CCN1C(=O)Cc1ccc(Cl)cc1Cl (stereo not drawn)", "CLASSIFICATION": "NO"}
{"MOLECULE": "Cc1cccc(-c2nc(Nc3ccc(O)cc3)c3ccccc3n2)c1", "CLASSIFICATION": "YES"}
{"MOLECULE": "CN(C)CCCNC(=S)N1CCN(c2nc(-c3ccccc3)cs2)CC1", "CLASSIFICATION": "YES"}
{"MOLECULE": "Nc1cc(C(=O)N2CCN(c3ccccc3Cl)CC2)ccc1N1CC2CC(C1)c1cccc(=O)n1C2 (stereo not drawn)", "CLASSIFICATION": "NO"}
{"MOLECULE": "COCCCn1c(C(=O)NC2CCCCC2)cc2c(=O)n3cccc(C)c3nc21", "CLASSIFICATION": "NO"}
{"MOLECULE": "O=C(CN1CCN(c2ccccc2)CC1)Nc1ccc(F)cc1", "CLASSIFICATION": "NO"}
{"MOLECULE": "COc1ccc(C(=O)Nc2onc3c2CCCC3)cc1", "CLASSIFICATION": "YES"}
{"MOLECULE": "O=C(OCc1cn([C@H]2C[C@H](c3ccccc3)N(C(=O)c3cccs3)C[C@@H]2O)nn1)c1ccccc1", "CLASSIFICATION": "NO"}
{"MOLECULE": "CC(=O)C[C@@H]1OC[C@H](CO)N1S(=O)(=O)c1ccc(C)cc1", "CLASSIFICATION": "NO"}
{"MOLECULE": "CC1(C(=O)Nc2cccnc2)Cc2c(-c3ccccc3)ccnc2O1 (stereo not drawn)", "CLASSIFICATION": "NO"}
{"MOLECULE": "CC(=O)c1cccc(Nc2ccc3cc(S(=O)(=O)N4CCC(C)CC4)ccc3n2)c1", "CLASSIFICATION": "NO"}
{"MOLECULE": "CN1CCN(CCNC(=O)Nc2ccc([N+](=O)[O-])cc2)CC1", "CLASSIFICATION": "NO"}
{"MOLECULE": "CCN(CC)CCN(C)C(c1ccnc2ccccc12)c1nnnn1-c1ccc2c(c1)OCCO2 (stereo not drawn)", "CLASSIFICATION": "NO"}
{"MOLECULE": "Cc1cccc(-c2noc(-c3ccc(F)cc3)n2)c1", "CLASSIFICATION": "NO"}
{"MOLECULE": "CCCS(=O)(=O)NC(=O)C1(C)CCCN(C(=O)c2cc(C)on2)C1 (stereo not drawn)", "CLASSIFICATION": "NO"}
{"MOLECULE": "CN1CCN(S(=O)(=O)c2ccc(N3CCN(c4ccccc4O)CC3)c([N+](=O)[O-])c2)CC1", "CLASSIFICATION": "YES"}
{"MOLECULE": "O=C(NCCCN1CCN(c2ccc(F)cc2)CC1)Nc1ccc([N+](=O)[O-])cc1", "CLASSIFICATION": "YES"}
{"MOLECULE": "CC1CCc2noc(NC(=O)c3ccc([N+](=O)[O-])cc3)c2C1 (stereo not drawn)", "CLASSIFICATION": "NO"}
{"MOLECULE": "Cc1ccc(S(=O)(=O)N2CCN(c3ccccc3)CC2)cc1C", "CLASSIFICATION": "NO"}
{"MOLECULE": "CCOC(=O)C1=C(C)Nc2nc3ccccc3n2C1c1cccs1 (stereo not drawn)", "CLASSIFICATION": "NO"}
{"MOLECULE": "Cc1cccc(C(=O)N2c3nc(-c4ccco4)nn3C3(CCCCC3)[C@@H]3CCCC[C@@H]32)c1", "CLASSIFICATION": "YES"}
{"MOLECULE": "Cc1c(C)n(Cc2ccc(Cl)cc2)c2ccc(C(=O)NCCCN3CCOCC3)cc12", "CLASSIFICATION": "YES"}
{"MOLECULE": "CN(C)CCCNC(=S)N1CCC(c2nc3ccccc3[nH]2)CC1", "CLASSIFICATION": "NO"}
{"MOLECULE": "CN(Cc1c(F)cccc1Cl)C(=O)COC(=O)Cn1cnc2ccccc2c1=O", "CLASSIFICATION": "NO"}
{"MOLECULE": "COc1ccc(C(C(=O)Nc2c(C)cccc2C)N2CCN(c3ccc(C)cc3)CC2)cc1 (stereo not drawn)", "CLASSIFICATION": "NO"}
{"MOLECULE": "Cc1ccc(CNC(=O)CN2CCN(Cc3ccc(Cl)cc3)C2=O)cc1", "CLASSIFICATION": "YES"}
{"MOLECULE": "O=C1CCC(C(=O)OCC(=O)Nc2ccc(OC(F)F)cc2)=NN1", "CLASSIFICATION": "NO"}
{"MOLECULE": "Cc1cc(Cl)ccc1OCCCC(=O)Nc1cccc(-n2cnnn2)c1", "CLASSIFICATION": "YES"}
{"MOLECULE": "O=C1NC[C@@H](CCCCN2CCN(CCc3ccc(O)cc3)C(=O)C2=O)N(CC2CCCCC2)C1=O", "CLASSIFICATION": "NO"}
{"MOLECULE": "Cc1ccc(C)c(OCC(=O)N2CCN(C(=O)c3ccco3)CC2)c1", "CLASSIFICATION": "NO"}
